- assay target: T1, biotinylated anti-human CD3 IgG (anti-CD3 P035.093) (biotinylated (site not stated))
- T1 construct: IgG format of this reagent is not described further; immobilised on a CAP chip; also called CD3 IgG (P035.093)
- T1 sequence (VH, as listed by the source, chain 1 of 2): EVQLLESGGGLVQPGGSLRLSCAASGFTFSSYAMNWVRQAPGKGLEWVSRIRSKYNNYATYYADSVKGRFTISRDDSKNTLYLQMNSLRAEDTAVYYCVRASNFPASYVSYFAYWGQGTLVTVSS
- T1 sequence (VL, as listed by the source, chain 2 of 2): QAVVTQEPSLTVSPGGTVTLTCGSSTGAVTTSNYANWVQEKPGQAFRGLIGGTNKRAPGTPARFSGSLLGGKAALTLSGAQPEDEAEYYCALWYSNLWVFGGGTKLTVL
- procedure text: SPR; biotinylated anti-CD3 P035.093 IgG on CAP chip, anti-idiotypic IgG at 1 µg/ml; response normalised to anti-human IgG surface and to the unstressed sample; after 14 d at 37 °C pH 7.4
measurement label: Rel. active concentration [%] (%)

INSERT INTO measurements (binder, measurement_label, numeric_readout) VALUES
  ('Humanized variant H3L3 of anti-idiotypic antibody 4.24.72 (IgG) (antibody, V domains shown, Produced and purified as IgG; also called Mask humanization variant H3L3) VH: QVQLVQSGSELKKPGASVKVSCKASGYTVTDYSMNWVRQAPGQGLEWMGWINTETGEPRYTQGFKGRFVFSLDTSVSTAYLQISSLKAEDTAVYYCAREGDYDVFDYWGQGTLVTVSS VL: DIVMTQSPDSLAVSLGERATINCRASKSVSTSSYSYMHWYQQKPGQPPKLLIKYVSYLESGVPDRFSGSGSGTDFTLTISSLQAEDVAVYYCQQSREFPYTFGQGTKLEIK', 'Rel. active concentration [%]', 87),
  ('Humanized variant H1L2 of anti-idiotypic antibody 4.24.72 (IgG) (antibody, V domains shown, Produced and purified as IgG; also called Mask humanization variant H1L2) VH: QVQLVQSGSELKKPGASVKVSCKASGYTVTDYSMNWVRQAPGQGLEWMGWINTETGEPRYTDDFKGRFVFSLDTSVSTAYLQISSLKAEDTAVYYCAREGDYDVFDYWGQGTLVTVSS VL: DIVMTQSPDSLAVSLGERATINCKSSKSVSTSSYSYMHWYQQKPGQPPKLLIKYVSYLESGVPDRFSGSGSGTDFTLTISSLQAEDVAVYYCQHSREFPYTFGQGTKLEIK', 'Rel. active concentration [%]', 94),
  ('Humanized variant H1L1 of anti-idiotypic antibody 4.24.72 (IgG) (antibody, V domains shown, Produced and purified as IgG; also called Mask humanization variant H1L1) VH: QVQLVQSGSELKKPGASVKVSCKASGYTVTDYSMNWVRQAPGQGLEWMGWINTETGEPRYTDDFKGRFVFSLDTSVSTAYLQISSLKAEDTAVYYCAREGDYDVFDYWGQGTLVTVSS VL: DIVMTQSPDSLAVSLGERATINCRASKSVSTSSYSYMHWYQQKPGQPPKLLIKYVSYLESGVPDRFSGSGSGTDFTLTISSLQAEDVAVYYCQHSREFPYTFGQGTKLEIK', 'Rel. active concentration [%]', 93),
  ('Humanized variant H3L2 of anti-idiotypic antibody 4.24.72 (IgG) (antibody, V domains shown, Produced and purified as IgG; also called Mask humanization variant H3L2) VH: QVQLVQSGSELKKPGASVKVSCKASGYTVTDYSMNWVRQAPGQGLEWMGWINTETGEPRYTQGFKGRFVFSLDTSVSTAYLQISSLKAEDTAVYYCAREGDYDVFDYWGQGTLVTVSS VL: DIVMTQSPDSLAVSLGERATINCKSSKSVSTSSYSYMHWYQQKPGQPPKLLIKYVSYLESGVPDRFSGSGSGTDFTLTISSLQAEDVAVYYCQHSREFPYTFGQGTKLEIK', 'Rel. active concentration [%]', 94),
  ('Humanized variant H7L5 of anti-idiotypic antibody 4.24.72 (IgG) (antibody, V domains shown, Produced and purified as IgG; also called Mask humanization variant H7L5) VH: QVQLVQSGAEVKKPGASVKVSCKASGYTVTDYSMNWVRQAPGQGLEWMGWINTETGEPRYTDDFKGRVTMTRDTSISTAYMELSRLRSDDTAVYYCAREGDYDVFDYWGQGTLVTVSS VL: DIVMTQSPDSLAVSLGERATINCRASKSVSTSSYSYMHWYQQKPGQPPKLLIYYVSYLESGVPDRFSGSGSGTDFTLTISSLQAEDVAVYYCQHSREFPYTFGQGTKLEIK', 'Rel. active concentration [%]', 80),
  ('Humanized variant H2L2 of anti-idiotypic antibody 4.24.72 (IgG) (antibody, V domains shown, Produced and purified as IgG; also called Mask humanization variant H2L2) VH: QVQLVQSGSELKKPGASVKVSCKASGYTVTDYSMNWVRQAPGQGLEWMGWINTETGEPRYTDDFTGRFVFSLDTSVSTAYLQISSLKAEDTAVYYCAREGDYDVFDYWGQGTLVTVSS VL: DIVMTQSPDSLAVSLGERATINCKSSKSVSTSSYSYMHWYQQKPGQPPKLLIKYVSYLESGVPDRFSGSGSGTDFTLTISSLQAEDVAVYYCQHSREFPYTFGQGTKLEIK', 'Rel. active concentration [%]', 93);
